Target: Amine oxidase [flavin-containing] A (Homo sapiens, UniProt P21397)
Sequence (P21397 whole entry): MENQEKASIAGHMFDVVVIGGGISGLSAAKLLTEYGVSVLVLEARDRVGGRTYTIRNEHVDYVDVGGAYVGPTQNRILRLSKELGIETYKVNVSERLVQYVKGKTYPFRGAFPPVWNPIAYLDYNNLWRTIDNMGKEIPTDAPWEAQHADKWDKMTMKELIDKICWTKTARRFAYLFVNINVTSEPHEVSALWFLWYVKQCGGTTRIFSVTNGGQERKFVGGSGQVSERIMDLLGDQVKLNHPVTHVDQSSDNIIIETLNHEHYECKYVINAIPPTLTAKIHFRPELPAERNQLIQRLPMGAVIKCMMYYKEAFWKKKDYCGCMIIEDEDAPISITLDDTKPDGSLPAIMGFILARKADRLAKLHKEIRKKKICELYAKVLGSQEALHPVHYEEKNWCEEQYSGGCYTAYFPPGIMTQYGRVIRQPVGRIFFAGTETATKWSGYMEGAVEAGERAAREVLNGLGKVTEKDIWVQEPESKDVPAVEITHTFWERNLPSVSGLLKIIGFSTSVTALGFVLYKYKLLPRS

{"Compound": "CC(=O)N1N=C(c2ccc(OCC=C(C)C)cc2O)CC1c1ccc(OCc2ccccc2)cc1 (stereo unspecified)", "IC50 / nM": 316}

---

Molecular target: Amine oxidase [flavin-containing] B (Homo sapiens)
Sequence (P27338 whole entry): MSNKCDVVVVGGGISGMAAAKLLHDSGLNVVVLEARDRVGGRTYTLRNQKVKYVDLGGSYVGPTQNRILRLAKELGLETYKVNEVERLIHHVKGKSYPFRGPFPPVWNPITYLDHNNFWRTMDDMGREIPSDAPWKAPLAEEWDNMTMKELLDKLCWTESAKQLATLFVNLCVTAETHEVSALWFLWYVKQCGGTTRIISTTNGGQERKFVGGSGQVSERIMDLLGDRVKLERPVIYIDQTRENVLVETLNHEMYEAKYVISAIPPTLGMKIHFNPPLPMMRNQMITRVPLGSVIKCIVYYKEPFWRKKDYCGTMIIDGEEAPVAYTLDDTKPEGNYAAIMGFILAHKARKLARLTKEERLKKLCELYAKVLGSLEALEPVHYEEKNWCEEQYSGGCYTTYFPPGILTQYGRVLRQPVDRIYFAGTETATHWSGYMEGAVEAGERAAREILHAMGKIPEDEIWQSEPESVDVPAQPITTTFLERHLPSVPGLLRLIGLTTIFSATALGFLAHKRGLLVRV
Assay: biochemical
Description: Inhibition of human recombinant MAO-B expressed in baculovirus infected BT1 cells
Listed here: items and their measured IC50.

{"Compound": "CC(C)=CCOc1ccc(C2=NN(C(N)=S)C(c3ccccc3)C2)c(O)c1 (stereo not drawn)", "IC50": "52500 nM"}
{"Compound": "CC(=O)N1N=C(c2ccc(OCC=C(C)C)cc2O)CC1c1ccc(OCc2ccccc2)cc1 (stereo not drawn)", "IC50": "174 nM"}
{"Compound": "CC(C)=CCOc1ccc(C2=NN(C(N)=S)C(c3ccc(Cl)cc3)C2)c(O)c1 (stereo not drawn)", "IC50": "832 nM"}
